System: SW-620 colon
Experiment: NCI tumour cell line growth inhibition, 48 h
quantityMeasured: TGI

Please review the entries below; each comes with its answer.
{"columns": ["molecule", "TGI"],
 "data": [
  ["CCCc1cc(=O)oc2c(C(=O)CC(C)C)c(O)c(CC=C(C)C)c(O)c12", "> 50 µM"],
  ["NNC(N)=Nc1cccc2ccccc12", "> 100 µM"],
  ["O=C(N/N=C(/COc1cccc(Cl)c1)N=Cc1ccncc1)c1ccncc1", "> 100 µM"]
]}

Problem: Data request, read-out TGI, for CCCNc1nc(N(C)O)nc(N(C)O)n1
Result: > 100 µM

Problem: Then this molecule: CC(=O)OC1C=CC2CCN3C(=O)c4cc5c(cc4[C@H]1C23)OCO5 (stereo partly specified)
Result: > 100 µM

Problem: Repeat with CCCCCCCCCc1cc(O)c(O)cc1CCCCCCCCC
Result: > 10 µM

====

Recorded measurements of GI50, one per entry
Tested on: 786-0 renal

{"columns": ["compound", "GI50"],
 "data": [
  ["CCN1CCC[C@H]1c1cc(O)c2c(c1OC)C[C@H]1C[C@H]3[C@H](N)C(=O)C(C(N)=O)=C(O)[C@@]3(O)C(=O)C1=C2O", "50.4 nM"]
]}

Problem: Query: GI50; subject: COC(=O)[C@]12CC[C@@H](C)[C@H](C)[C@@H]1C1=CC[C@@H]3[C@@]4(C)C[C@@H](OC(=O)c5ccco5)[C@H](O)[C@@](C)(CO)[C@@H]4[C@H](O)C[C@@]3(C)[C@]1(C)CC2
Result: 2100 nM

Problem: Note, next up: Clc1ccc(-c2nc3c(-c4ccc(Cl)cc4)nc(-c4ccccc4)cn3c2-c2ccc(Cl)cc2)cc1
Result: 46500 nM

Problem: Can you check COc1cccc(Nc2nc(NNC(=O)Cc3ccccc3)nc(NNC(=O)c3ccncc3)n2)c1 next?
Result: > 100000 nM

====

Tested on: NCI-H522 lung
Experiment: NCI tumour cell line growth inhibition, 48 h
# log10 of TGI per record follows
Reminder: these figures are log10 of reported TGI, in µM before transformation.

Would you please look over these solved cases?
{"columns": ["compound", "log10 of TGI"],
 "data": [
  ["CC(C)(C)OC(=O)N1C(C2=COc3ccccc3O2)=COc2ccccc21", 1.61],
  ["CC/C(=N\\Nc1nc2ccccc2n1C)c1ccccn1", 0.37],
  ["O=C(CSc1nc2ccc(I)cc2c(=O)n1Cc1ccccc1)N/N=C/c1ccccc1", 1.60],
  ["CN(C)C(=S)Nc1nnc(NC23CC4CC(CC(C4)C2)C3)s1", 1.54],
  ["Cc1csc2c(P(=O)(OC(C)C)OC(C)C)c(-c3ccccc3)cn12", 1.49],
  ["CCN1CCC[C@H]1c1cc(O)c2c(c1OC)C[C@H]1C[C@H]3[C@H](N)C(=O)C(C(N)=O)=C(O)[C@@]3(O)C(=O)C1=C2O", -0.10]
]}

Problem: Query: log10 of TGI; subject: Cc1nn2c(N)cc(=O)nc2nc1/C=C/c1ccc(N(C)C)cc1
Result: 0.88

Problem: Also check COc1ccc(-c2cc(-c3ccccc3)n(C3OC(COC(C)=O)C(OC(C)=O)C(OC(C)=O)C3OC(C)=O)c(=S)c2C#N)cc1 (configuration not stated)
Result: 1.27

====

Test system: K-562 leukemia
Assay: NCI tumour cell line growth inhibition, 48 h
Reported TGI values for the following compounds.

Worked examples follow.
{"columns": ["compound", "TGI"],
 "data": [
  ["COc1ccc2nc(-c3ccc(OC(=O)N(C)C)cc3)cn2c1", "> 100 µM"],
  ["CCCCCCCCCc1cc(O)c(O)cc1CCCCCCCCC", "> 10 µM"],
  ["COc1ccc(Nc2c3ccccc3nc3c2c2ccccc2n3C)cc1", "> 100 µM"]
]}

Problem: Report TGI for COCCc1c(C)c(C#N)c2n(C)c3ccccc3n2c1=O please.
Result: > 10 µM

Problem: Repeat for the following compound: COc1ccc(/C=C/c2cc(OC)c(O[Si](C)(C)C(C)(C)C)c(OC)c2)cc1
Result: > 100 µM

Problem: Now consider C=CCN1C(=O)/C(=c2\sc3n(c2=O)C2C(NN=3)N(CC)C(=O)N2CC)c2ccccc21 (stereo unspecified) .
Result: > 100 µM

====

Parameter TGI: see the listing below.
Test system: SR leukemia
Assay: NCI tumour cell line growth inhibition, 48 h

{"columns": ["molecule", "TGI"],
 "data": [
  ["CSC1=Nc2c(c(C)c(-c3ccccc3)n2COC(CO)CO)C2=NC(=O)C(C)N12 (stereo not given)", "> 100 µM"],
  ["O=c1oc2ncccc2n1Cc1ccc([N+](=O)[O-])cc1", "> 100 µM"]
]}

Problem: Request the reported TGI associated with CCCCC1Cc2cc(O)ccc2-c2n1c1cc(O)ccc1[n+]2C (stereo not given) (tested in a mixture with another compound)
Result: > 100 µM

Problem: Input NC(CCCCCP(=O)(O)O)C(=O)O (stereo not given)
Result: > 100 µM

Problem: Also O=C1C(NS(=O)(=O)c2ccccc2)=C(n2cnc3ccccc32)C(=O)c2ccccc21 ?
Result: > 100 µM

Problem: CCSC1(SCC)CCN(C=NC(C)(C)C)C1 , same question.
Result: > 100 µM

Problem: Try O=C(c1cc2ccccc2[nH]1)C(O)(c1cc2ccccc2[nH]1)c1cc2ccccc2[nH]1 next.
Result: > 246 µM

====

Each item that follows carries a reported TGI.
System: U251 CNS
Assay: NCI tumour cell line growth inhibition, 48 h

Solved entries (count: 5):
{"columns": ["compound", "TGI"],
 "data": [
  ["N#Cc1ccc(Oc2nccc(-c3c(-c4ccc(F)cc4)ncn3C3CCNCC3)n2)cc1", "> 25 µM"],
  ["Clc1ccc(-c2nc3c(-c4ccc(Cl)cc4)nc(-c4ccccc4)cn3c2-c2ccc(Cl)cc2)cc1", "> 50 µM"],
  ["ON=C1CCCCC(=NO)CCCC1", "> 100 µM"],
  ["O=c1[nH]c(=S)[nH]c2c1sc(=S)n2-c1ccccc1", "> 100 µM"],
  ["O=C(CC(=O)N1N=C(n2ccc3ccccc32)CC1c1ccccc1)Nc1cccc(Cl)c1 (stereo not given)", "> 100 µM"]
]}

Problem: Request the reported TGI associated with CC(=O)CC(=O)CCCC(=O)Nc1ccc(Cl)cc1C
Result: > 100 µM

Problem: Next: CC1=NN(c2nc(N)nc(CS(C)(=O)=O)n2)C(C)(C)C1
Result: > 100 µM

Problem: Same again, this time with CN1CN(c2ccccc2)C2(CCNCC2)C1=O
Result: > 100 µM

Problem: And for c1ccc(Cc2cccc3cc(-c4ccc(-c5ccccc5)cc4)[nH]c23)cc1 ?
Result: > 100 µM

Problem: Please answer likewise for CCOC(=O)C(Cc1ccc2c(c1)CCC2)(Cc1ccc2c(c1)CCC2)C(=O)OCC
Result: > 100 µM

====

System: T-47D breast
Test: NCI tumour cell line growth inhibition, 48 h
quantityMeasured: TGI

Here are 2 compounds together with their reported answers.
{"columns": ["compound", "TGI"],
 "data": [
  ["COc1cc(/C=C2\\C(=O)N(c3cccc(Cl)c3)C(c3ccccc3)S2(=O)=O)cc(OC)c1OC (stereo not drawn)", "> 100 µM"],
  ["CSC1=Nc2c(c(C)c(-c3ccccc3)n2COC(CO)CO)C2=NC(=O)C(C)N12 (stereo not drawn)", "> 100 µM"]
]}

Consider the additional compound presented here.
Problem: Looking for the measured TGI of C=CCOC(=O)CCCCCCCCCCCCCCCOC(=O)C1=C(CCC[C@@H](C)O[Si](C)(C)C(C)(C)C)N=C(N)N2[C@H](CC3(CC/C=C\[C@H](CC)O[Si](C(C)C)(C(C)C)C(C)C)OCCO3)CC[C@@H]12 , can you help?
Result: > 100 µM

====

Listed below: TGI values for each entry.
System: ACHN renal
Assay: NCI tumour cell line growth inhibition, 48 h

{"columns": ["compound", "testSystem", "TGI"],
 "data": [
  ["CCOP(=O)(CCP(=O)(OCC)OCC)OCC.C[CH2][Sn]([Cl])([Cl])[CH2]C", "ACHN renal", "57.1 µM"],
  ["CCOC(=O)C(Cc1ccc2c(c1)CCC2)(Cc1ccc2c(c1)CCC2)C(=O)OCC", "ACHN renal", "> 100 µM"],
  ["Clc1ccccc1C(n1cc(Br)cn1)n1cc(Br)cn1", "ACHN renal", "55.2 µM"],
  ["NCCCNCCSSCc1ccccc1CSSCCNCCCN", "ACHN renal", "> 100 µM"],
  ["Nc1ccc2c(c1)C(=O)c1ccc(F)cc1-2", "ACHN renal", "> 100 µM"],
  ["CCN(CC)CCN1C(=O)c2cccc3c(-c4ccc5c(c4)ncn5C4CCCCC4)ccc(c23)C1=O", "ACHN renal", "2.96 µM"],
  ["Fc1ccc(-c2nc(-c3nc4ccc(Cl)cc4[nH]3)cc3c2[nH]c2ccccc23)cc1", "ACHN renal", "13.7 µM"],
  ["Cc1cc(C)nc(NS(=O)(=O)c2ccc(Nc3c4ccccc4nc4c(C(=O)NCCN(C)C)ccc(Cl)c34)cc2)n1", "ACHN renal", "8.97 µM"]
]}

Problem: Please look up its TGI: O=C(NCCCN1CCN(CCCNC(=O)c2cnc3ccccc3n2)CC1)c1cnc2ccccc2n1
Result: > 100 µM

Problem: Now consider CCOC(=O)C(SCCO)C(C(=O)OCC)n1ccc(N)nc1=O (centres undefined) and answer again.
Result: > 100 µM

Problem: What do we get for O=C(Oc1cccnc1)c1ccccc1Nc1ccnc(C(F)(F)F)c1 ?
Result: > 74.6 µM

Problem: Now consider CC(=O)NNc1nc(C)c(C(=O)NNC(=O)C(=O)Nc2ccc(C)c(C)c2)s1 .
Result: > 100 µM

Problem: Lookup CC1=C(C)C(=O)OC(C(C)(O)C2(O)CCC3(O)C4CC(Cl)C5(O)C(O)C=CC(=O)C5(C)C4CCC32C)C1 (centres undefined)
Result: > 100 µM

Problem: Query O=C(c1cc(=O)c2ccc(O)cc2o1)c1ccc(Cl)cc1Cl next
Result: > 100 µM
